System: endometrial adenocarcinoma (ECC-1) cells
Test: MTT cytotoxicity assay, ECC-1
Type: cell-based, human
Conditions: Homo sapiens, ECC-1, cancer cell, 48 h, means of three independent experiments
measuredAttribute: pIC50
# log scale: pIC50 equals minus log10 of the concentration in mol/L

Some compounds with recorded pIC50:
1) NS(=O)(=O)c1cccc(N/N=N/c2ccc(C(=O)O)cc2)c1 [Compound L3]	3.71
2) Cc1cc(C)cc(NN=Nc2cccc(S(N)(=O)=O)c2)c1 [Compound L5]	3.88
3) O=c1[nH]cc(F)c(=O)[nH]1 [Compound 5-FU, 5-Fluorouracil, reference compound]	4.51

Could you tell me which pIC50 is on file for NS(=O)(=O)c1cccc(N/N=N/c2ccc(F)cc2)c1 [Compound L1] ?
3.62

----------
Entries annotated with measured IC50
Tested on: normal prostate epithelium (PNT-1A) cells
Assay: MTT cytotoxicity assay, PNT-1A
Format: cell-based, human
Conditions: normal cell, 48 h, means of three independent experiments, read-out: IC50 PNT-1A
# output: bare number, implied unit µM

Which value of IC50 has been reported for CC(=O)[O][Ag][N](N=Nc1cc(C)cc(C)c1)c1cccc(S(N)(=O)=O)c1 in the records?
111

Next compound up: CC(=O)[O][Cu-]1([O]C(C)=O)[N](c2cccc(S(N)(=O)=O)c2)N=[N+]1c1ccc(C(=O)O)cc1
120

And for COc1ccc([N+]2=N[N](c3cccc(S(N)(=O)=O)c3)[Cu-]2([O]C(C)=O)[O]C(C)=O)cc1 ?
95.1

Another compound: COc1ccc([N+]2=N[N](c3cccc(S(N)(=O)=O)c3)[Cu-]2([O]C(C)=O)[O]C(C)=O)cc1OC
125
